# TARGET OF ASSAY: CYP2C19 (Homo sapiens)
# PROTOCOL CONDITIONS: female, human, plasma, oral, t½, + 60 mg ASP8477 once daily (day 14); mean ± SD
PROPERTY MEASURED: half-life (h)
Express it in h; write the number only.

Asked: Missing value: half-life, CYP2C19 (Homo sapiens), entry COc1ccc2[nH]c([S+]([O-])Cc3ncc(C)c(OC)c3C)nc2c1 (stereo not shown) [Omeprazole, omeprazole] . Fill in?
Given back: 1.1

###

# TARGET OF ASSAY: CYP3A4 (Homo sapiens)
PROPERTY MEASURED: pKi
pKi (log units): -log10 of the concentration in mol/L.

Asked: Missing value: pKi, CYP3A4 (Homo sapiens), entry "O=C(Nc1ccccc1)C1CCN(C(=O)Oc2cccnc2)CC1" . Fill in?
Given back: 4.74

###

# TARGET OF ASSAY: CYP3A4 (Homo sapiens, UniProt P08684)
# Sequence (P08684 whole entry): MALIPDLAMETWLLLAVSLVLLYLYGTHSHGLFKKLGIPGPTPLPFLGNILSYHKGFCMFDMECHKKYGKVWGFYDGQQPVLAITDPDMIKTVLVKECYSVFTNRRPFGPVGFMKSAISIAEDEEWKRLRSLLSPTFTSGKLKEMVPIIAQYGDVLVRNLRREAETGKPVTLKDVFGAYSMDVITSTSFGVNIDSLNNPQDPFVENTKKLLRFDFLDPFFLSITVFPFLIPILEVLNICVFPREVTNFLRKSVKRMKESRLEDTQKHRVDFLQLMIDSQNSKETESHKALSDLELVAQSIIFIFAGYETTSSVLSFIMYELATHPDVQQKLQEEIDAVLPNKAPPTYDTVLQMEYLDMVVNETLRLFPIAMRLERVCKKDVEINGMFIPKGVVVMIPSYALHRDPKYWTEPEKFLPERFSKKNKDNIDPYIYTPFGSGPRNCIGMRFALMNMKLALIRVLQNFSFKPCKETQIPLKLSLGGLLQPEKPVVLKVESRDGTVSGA
# PROTOCOL CONDITIONS: female, human, plasma, oral, probe midazolam, t½, + 100 mg ASP8477 once daily (day 23); mean ± SD
PROPERTY MEASURED: half-life (h)
Express it in h; write the number only.

Asked: Missing value: half-life, CYP3A4 (Homo sapiens, UniProt P08684), entry "Cc1ncc2n1-c1ccc(Cl)cc1C(c1ccccc1F)=NC2" . Fill in?
Given back: 5.1

###

# TARGET OF ASSAY: UniProtKB P33261
# PROTOCOL CONDITIONS: female, human, plasma, oral, Cmax, + 100 mg ASP8477 once daily (day 23); mean ± SD
PROPERTY MEASURED: Cmax (ng/mL)
Express it in ng/mL; write the number only.

Asked: # get_value(readout='Cmax', item= COc1ccc2[nH]c([S+]([O-])Cc3ncc(C)c(OC)c3C)nc2c1 (stereo not shown) )
Given back: 1100

###

# TARGET OF ASSAY: CYP2C19 (Homo sapiens, UniProt P33261)
# Sequence (P33261 whole entry): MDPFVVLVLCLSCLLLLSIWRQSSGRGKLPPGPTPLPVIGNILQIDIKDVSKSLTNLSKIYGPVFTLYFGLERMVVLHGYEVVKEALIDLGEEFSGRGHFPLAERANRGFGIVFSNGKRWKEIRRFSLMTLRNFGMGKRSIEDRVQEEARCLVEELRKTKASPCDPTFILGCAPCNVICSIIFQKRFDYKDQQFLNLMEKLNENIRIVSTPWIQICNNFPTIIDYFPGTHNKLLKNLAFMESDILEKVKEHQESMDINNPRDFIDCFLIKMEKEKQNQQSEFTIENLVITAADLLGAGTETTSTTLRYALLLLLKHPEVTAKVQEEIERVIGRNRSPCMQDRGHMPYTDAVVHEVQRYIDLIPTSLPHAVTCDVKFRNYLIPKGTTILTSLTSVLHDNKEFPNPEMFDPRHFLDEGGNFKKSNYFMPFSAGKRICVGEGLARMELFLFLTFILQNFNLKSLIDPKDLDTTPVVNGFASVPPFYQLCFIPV
# PROTOCOL CONDITIONS: female, human, plasma, oral, AUCinf, + 60 mg ASP8477 once daily (day 14); mean ± SD
PROPERTY MEASURED: AUC(0-inf)
Kindly format the answer as number then unit.

Asked: # get_value(readout='AUC(0-inf)', item= COc1ccc2[nH]c([S+]([O-])Cc3ncc(C)c(OC)c3C)nc2c1 (stereo not shown) )
Given back: 2500 ng·h/mL

###

# TARGET OF ASSAY: CYP3A4 (Homo sapiens)
# PROTOCOL CONDITIONS: female, human, plasma, oral, probe midazolam, tmax (median [min‐max]), + 60 mg ASP8477 once daily (day 14)
PROPERTY MEASURED: Tmax
Kindly format the answer as number then unit.

Asked: # get_value(readout='Tmax', item= "Cc1ncc2n1-c1ccc(Cl)cc1C(c1ccccc1F)=NC2" )
Given back: 31.2 min

###

# TARGET OF ASSAY: CYP2C19 (Homo sapiens)
# PROTOCOL CONDITIONS: female, human, plasma, oral, AUCinf, cocktail alone (day 1); mean ± SD
PROPERTY MEASURED: AUC(0-inf)
Kindly format the answer as number then unit.

Asked: # get_value(readout='AUC(0-inf)', item= COc1ccc2[nH]c([S+]([O-])Cc3ncc(C)c(OC)c3C)nc2c1 (stereo not shown) [Omeprazole, omeprazole] )
Given back: 630 ng·h/mL

###

Tmax for assorted molecules
# TARGET OF ASSAY: CYP2C9 (Homo sapiens, UniProt P11712)
# Sequence (P11712 whole entry): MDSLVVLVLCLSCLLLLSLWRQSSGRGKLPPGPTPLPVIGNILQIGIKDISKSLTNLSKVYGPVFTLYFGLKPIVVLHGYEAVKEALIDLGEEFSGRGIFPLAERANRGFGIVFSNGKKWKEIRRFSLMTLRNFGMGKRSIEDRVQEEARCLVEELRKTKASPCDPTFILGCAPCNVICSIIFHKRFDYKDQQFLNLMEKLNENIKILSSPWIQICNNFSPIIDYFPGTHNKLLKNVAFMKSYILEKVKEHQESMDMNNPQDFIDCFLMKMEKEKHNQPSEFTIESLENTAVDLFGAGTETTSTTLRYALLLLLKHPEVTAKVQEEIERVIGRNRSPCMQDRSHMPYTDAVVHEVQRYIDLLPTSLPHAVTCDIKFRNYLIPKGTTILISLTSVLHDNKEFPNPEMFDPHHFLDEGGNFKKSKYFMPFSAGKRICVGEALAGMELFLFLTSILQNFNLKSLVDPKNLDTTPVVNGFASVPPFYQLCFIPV
# ASSAY COMMENT: Inje cocktail DDI study: losartan and EXP‐3174 PK, assessment of CYP2C9 activity
# PROTOCOL CONDITIONS: female, human, plasma, oral, tmax (median [min‐max]), + 20 mg ASP8477 once daily (day 7)
Kindly format the answer as number then unit.

CCCCc1nc(Cl)c(CO)n1Cc1ccc(-c2ccccc2-c2nn[nH]n2)cc1 [Losartan, losartan, reference compound]: 0.52 h

Asked: # get_value(readout='Tmax', item= "CCCCc1nc(Cl)c(C(=O)O)n1Cc1ccc(-c2ccccc2-c2nn[nH]n2)cc1" )
Given back: 5 h

###

# TARGET OF ASSAY: CYP2C8 (Homo sapiens, UniProt P10632)
# Sequence (P10632 whole entry): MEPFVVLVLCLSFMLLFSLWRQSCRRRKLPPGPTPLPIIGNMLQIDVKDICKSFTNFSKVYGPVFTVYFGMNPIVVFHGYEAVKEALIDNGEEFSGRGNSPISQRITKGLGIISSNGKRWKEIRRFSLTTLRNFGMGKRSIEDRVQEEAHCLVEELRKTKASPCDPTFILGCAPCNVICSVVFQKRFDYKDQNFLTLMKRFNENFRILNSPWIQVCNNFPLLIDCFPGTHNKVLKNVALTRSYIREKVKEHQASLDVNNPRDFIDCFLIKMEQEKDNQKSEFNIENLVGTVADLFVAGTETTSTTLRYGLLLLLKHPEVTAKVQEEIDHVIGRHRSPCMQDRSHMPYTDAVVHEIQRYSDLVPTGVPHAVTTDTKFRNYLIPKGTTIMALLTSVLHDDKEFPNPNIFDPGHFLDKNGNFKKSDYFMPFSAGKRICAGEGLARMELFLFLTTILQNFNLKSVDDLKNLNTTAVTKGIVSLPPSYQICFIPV
# ASSAY COMMENT: In vitro CYP inhibition studies in human liver microsomes using probe substrates
# Type: biochemical
PROPERTY MEASURED: pKi
pKi (log units): -log10 of the concentration in mol/L.

Asked: # get_value(readout='pKi', item= "O=C(Nc1ccccc1)C1CCN(C(=O)Oc2cccnc2)CC1" )
Given back: 4.82

###

# TARGET OF ASSAY: CYP2C19 (Homo sapiens, UniProt P33261)
# PROTOCOL CONDITIONS: female, human, plasma, oral, t½, cocktail alone (day 1); mean ± SD
PROPERTY MEASURED: half-life (min)
Express it in min; write the number only.

Asked: Missing value: half-life, CYP2C19 (Homo sapiens, UniProt P33261), entry COc1ccc2[nH]c([S+]([O-])Cc3ncc(C)c(OC)c3C)nc2c1 (stereo not shown) [Omeprazole, omeprazole] . Fill in?
Given back: 47.4

###

# ASSAY COMMENT: ASP8477 steady‐state plasma PK in the cocktail study
# Type: in vivo, human
# PROTOCOL CONDITIONS: female, human, plasma, oral, 20 mg
PROPERTY MEASURED: AUC (ng·h/mL)
Express it in ng·h/mL; write the number only.

Asked: # get_value(readout='AUC', item= O=C(Nc1ccccc1)C1CCN(C(=O)Oc2cccnc2)CC1 [ASP8477] )
Given back: 1600

###

Cmax for assorted molecules
# TARGET OF ASSAY: CYP2C9 (Homo sapiens, UniProt P11712)
# ASSAY COMMENT: Inje cocktail DDI study: losartan and EXP‐3174 PK, assessment of CYP2C9 activity
# PROTOCOL CONDITIONS: female, human, plasma, oral, Cmax, cocktail alone (day 1); mean ± SD
Express it in ng/mL; write the number only.

CCCCc1nc(Cl)c(CO)n1Cc1ccc(-c2ccccc2-c2nn[nH]n2)cc1 [Losartan, losartan, reference compound]: 64

Asked: Missing value: Cmax, CYP2C9 (Homo sapiens, UniProt P11712), entry CCCCc1nc(Cl)c(C(=O)O)n1Cc1ccc(-c2ccccc2-c2nn[nH]n2)cc1 [EXP‐3174, losartan acid] . Fill in?
Given back: 100

###

# TARGET OF ASSAY: CYP3A4 (Homo sapiens, UniProt P08684)
# PROTOCOL CONDITIONS: female, human, plasma, oral, probe midazolam, Cmax, + 60 mg ASP8477 once daily (day 14); mean ± SD
PROPERTY MEASURED: Cmax (ng/mL)
Express it in ng/mL; write the number only.

Asked: # get_value(readout='Cmax', item= "Cc1ncc2n1-c1ccc(Cl)cc1C(c1ccccc1F)=NC2" )
Given back: 20

###

# TARGET OF ASSAY: CYP3A4 (Homo sapiens)
# PROTOCOL CONDITIONS: female, human, plasma, oral, probe midazolam, Cmax, + 20 mg ASP8477 once daily (day 7); mean ± SD
PROPERTY MEASURED: Cmax (ng/mL)
Express it in ng/mL; write the number only.

Asked: # get_value(readout='Cmax', item= Cc1ncc2n1-c1ccc(Cl)cc1C(c1ccccc1F)=NC2 [Midazolam, midazolam] )
Given back: 16

###

# TARGET OF ASSAY: CYP2C9 (Homo sapiens)
# ASSAY COMMENT: Inje cocktail DDI study: losartan and EXP‐3174 PK, assessment of CYP2C9 activity
# PROTOCOL CONDITIONS: female, human, plasma, oral, tmax (median [min‐max]), + 60 mg ASP8477 once daily (day 14)
PROPERTY MEASURED: Tmax

CCCCc1nc(Cl)c(C(=O)O)n1Cc1ccc(-c2ccccc2-c2nn[nH]n2)cc1: 8 h

Here is another compound to look at.
Asked: # get_value(readout='Tmax', item= CCCCc1nc(Cl)c(CO)n1Cc1ccc(-c2ccccc2-c2nn[nH]n2)cc1 [Losartan, losartan, reference compound] )
Given back: 0.52 h

###

# TARGET OF ASSAY: CYP2C19 (Homo sapiens)
# PROTOCOL CONDITIONS: female, human, plasma, oral, Cmax, + 20 mg ASP8477 once daily (day 7); mean ± SD
PROPERTY MEASURED: Cmax

Asked: # get_value(readout='Cmax', item= COc1ccc2[nH]c([S+]([O-])Cc3ncc(C)c(OC)c3C)nc2c1 (stereo not shown) )
Given back: 0.64 µg/mL

###

# TARGET OF ASSAY: CYP2D6 (Homo sapiens)
# Sequence (P10635 whole entry): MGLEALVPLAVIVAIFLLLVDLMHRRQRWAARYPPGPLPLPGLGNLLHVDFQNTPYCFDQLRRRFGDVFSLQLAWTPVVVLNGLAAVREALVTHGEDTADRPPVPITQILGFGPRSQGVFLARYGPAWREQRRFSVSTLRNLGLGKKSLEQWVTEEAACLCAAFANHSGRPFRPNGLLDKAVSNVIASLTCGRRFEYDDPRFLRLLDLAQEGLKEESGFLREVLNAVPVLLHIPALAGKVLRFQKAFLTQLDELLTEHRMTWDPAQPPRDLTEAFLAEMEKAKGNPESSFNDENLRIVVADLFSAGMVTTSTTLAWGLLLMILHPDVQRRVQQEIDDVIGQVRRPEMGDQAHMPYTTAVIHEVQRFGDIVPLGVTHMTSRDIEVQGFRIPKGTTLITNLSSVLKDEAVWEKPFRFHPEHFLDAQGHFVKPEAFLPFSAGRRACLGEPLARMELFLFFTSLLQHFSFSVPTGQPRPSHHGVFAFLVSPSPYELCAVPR
# PROTOCOL CONDITIONS: female, human, plasma, oral, probe dextromethorphan, t½, + 60 mg ASP8477 once daily (day 14); mean ± SD
PROPERTY MEASURED: half-life (h)
Express it in h; write the number only.

COc1ccc2c(c1)[C@]13CCCC[C@@H]1[C@H](C2)N(C)CC3 [Dextromethorphan, dextromethorphan, reference compound]: 9.3

Here is another compound to look at.
Asked: # get_value(readout='half-life', item= CN1CC[C@@]23CCCC[C@@H]2[C@@H]1Cc1ccc(O)cc13 [Dextrorphan, dextrorphan] )
Given back: 8.8
